Where do the numbers come from? From the supplement of paper PMC9780213.

- Test system: U2OS
- ASSAY DETAILS: cell count relative to DMSO control (panel A, nuclei/RNA/PMG/mitochondria stain) (fraction of control); higher = more cells (less toxicity)
- CONDITION: 10 µM; treatment time: 24 h
Mark condition not met for cell count values under 0.6, and condition met for everything at or above.

Study these solved cases before continuing.
Cn1c(CCCC(=O)O)nc2cc(N(CCCl)CCCl)ccc21 [bendamustine] = condition not met
CN1CCC(c2c(O)cc(O)c3c(=O)cc(-c4ccccc4Cl)oc23)[C@@H](O)C1 (stereo not given in full) [alvocidib] = condition not met
Fc1cc(F)c2c(c1)[C@H]1C=CC[C@H]1C(c1cccnc1)N2 (stereo not given in full) [golgicide-A] = condition met

Req: Evaluate Cc1c(Cl)cccc1Nc1ccccc1C(=O)O [tolfenamic-acid] : cell count at minimum 0.6?
Resp: condition met

* * *

- Test system: U2OS-mOrange2-Peroxisome
- ASSAY DETAILS: cell count relative to DMSO control (panel B, lysosome/peroxisome/lipid stain) (fraction of control); higher = more cells (less toxicity)
- CONDITION: 2.5 µM; treatment time: 24 h
VALUE TYPE: cell count
Write no unit; give the number alone.

Please review the following examples before continuing.
CCN(CC)CCCC(C)Nc1c2ccc(Cl)cc2nc2ccc(OC)cc12 (configuration not stated) = 0.763
CN1CCC(c2c(O)cc(O)c3c(=O)cc(-c4ccccc4Cl)oc23)[C@@H](O)C1 (some centres not stated) = 1.24
Fc1cc(F)c2c(c1)[C@H]1C=CC[C@H]1C(c1cccnc1)N2 (some centres not stated) [golgicide-A] = 0.719
COc1ccc(C[C@H](N)C(=O)N[C@H]2[C@@H](O)[C@H](n3cnc4c(N(C)C)ncnc43)O[C@@H]2CO)cc1 = 1.29

Req: Can you share its cell count? I mean this compound: COc1cc([C@@H]2c3cc4c(cc3[C@H](O)[C@H]3COC(=O)[C@@H]23)OCO4)cc(OC)c1OC
Resp: 1.42

Req: Can you share its cell count? I mean this compound: COc1cc(-n2c(=S)[nH]c3ccccc3c2=O)c(Cl)cc1Cl
Resp: 1.03

Req: Can you share its cell count? I mean this compound: COc1cccc2c1C(=O)c1c(O)c3c(c(O)c1C2=O)C[C@@](O)(C(=O)CO)C[C@@H]3O[C@H]1C[C@H](N)[C@H](O)[C@H](C)O1
Resp: 1.1

* * *

- Test system: U2OS-LMNB1-TUBA1B-ACTB
- ASSAY DETAILS: cell count relative to DMSO control (panel C1, DRAQ5/ER stain) (fraction of control); higher = more cells (less toxicity)
- CONDITION: 0.625 µM; treatment time: 24 h
VALUE TYPE: cell count

Please review the following examples before continuing.
O=C(/C=C/c1cccc(S(=O)(=O)Nc2ccccc2)c1)NO = 1.04
Fc1cc(F)c2c(c1)[C@H]1C=CC[C@H]1C(c1cccnc1)N2 (stereo partly specified) [golgicide-A] = 1.05
COc1cc([C@@H]2c3cc4c(cc3[C@H](O)[C@H]3COC(=O)[C@@H]23)OCO4)cc(OC)c1OC = 1.04
CCCC[C@H]1C(=O)O[C@H](C)[C@H](NC(=O)c2cccc(NC=O)c2O)C(=O)O[C@@H](C)[C@@H]1OC(=O)CC(C)C [antimycin-a] = 0.943
CC[C@H]1/C=C/C=C/C[C@@H](C)[C@H](O)[C@@](C)(O)C(=O)[C@@H](C)[C@H](O)[C@@H](C)C(=O)[C@@H](C)[C@H](O)[C@@H](C)/C=C/C(=O)O[C@@H]2[C@H](C)[C@H](CC1)O[C@]1(CC[C@H](C)[C@H](C[C@@H](C)O)O1)[C@H]2C = 1.07

Req: Can you share its cell count? I mean this molecule: O=C(Oc1cc(S(=O)(=O)c2ccccc2)ccc1[N+](=O)[O-])c1ccc(Cl)cc1
Resp: 1.06

Req: Can you share its cell count? I mean this molecule: Cc1[nH]c2ccccc2c1CCNC(=O)c1cccs1
Resp: 1.06

* * *

- Tested on: U2OS
- ASSAY DETAILS: cell count relative to DMSO control (panel A, nuclei/RNA/PMG/mitochondria stain) (fraction of control); higher = more cells (less toxicity)
- CONDITION: 5 µM; treatment time: 24 h
VALUE TYPE: cell count
Write no unit; give the number alone.

Please review the following examples before continuing.
Nc1ccn([C@@H]2O[C@H](CO)[C@@H](O)C2(F)F)c(=O)n1 = 0.396
COc1ccc(C2CNC(=O)C2)cc1OC1CCCC1 (centres undefined) = 0.915
N#C[C@H](O[C@@H]1O[C@H](CO[C@@H]2O[C@H](CO)[C@@H](O)[C@H](O)[C@H]2O)[C@@H](O)[C@H](O)[C@H]1O)c1ccccc1 = 0.921

Next:
Req: Can you share its cell count? I mean this compound: O=C(/C=C\n1cnc(-c2cc(C(F)(F)F)cc(C(F)(F)F)c2)n1)NNc1cnccn1 [selinexor]
Resp: 0.9

* * *

- Tested on: U2OS-LMNB1-TUBA1B-ACTB
- ASSAY DETAILS: cell count relative to DMSO control (panel C1, DRAQ5/ER stain) (fraction of control); higher = more cells (less toxicity)
- CONDITION: 0.625 µM; treatment time: 24 h
Entries and their cell count values follow.

COc1cc(-n2c(=S)[nH]c3ccccc3c2=O)c(Cl)cc1Cl = 1.01

Req: Form: Entry = CO[C@@]12[C@H](COC(N)=O)C3=C(C(=O)C(C)=C(N)C3=O)N1C[C@@H]1N[C@@H]12 | System = U2OS-LMNB1-TUBA1B-ACTB | cell count = ____
Resp: 0.789

Req: Form: Entry = Nc1ccn([C@@H]2O[C@H](CO)[C@@H](O)C2(F)F)c(=O)n1 | System = U2OS-LMNB1-TUBA1B-ACTB | cell count = ____
Resp: 0.582

Req: Form: Entry = O=C(CCCN1CCC(O)(c2ccc(Cl)cc2)CC1)c1ccc(F)cc1 | System = U2OS-LMNB1-TUBA1B-ACTB | cell count = ____
Resp: 1.05

Req: Form: Entry = CCOc1ccccc1-n1c(C(C)N2CCN(C(=O)COc3ccc(Cl)cc3)CC2)nc2ccccc2c1=O (centres undefined) | System = U2OS-LMNB1-TUBA1B-ACTB | cell count = ____
Resp: 1.14

* * *

- Tested on: U2OS-LMNB1-TUBA1B-ACTB
- ASSAY DETAILS: cell count relative to DMSO control (panel C1, DRAQ5/ER stain) (fraction of control); higher = more cells (less toxicity)
- CONDITION: 0.625 µM; treatment time: 24 h
VALUE TYPE: cell count

COc1ccc(C[C@H]2NC[C@H](O)[C@H]2OC(C)=O)cc1 = 0.602

Req: Can you share its cell count? I mean this molecule: CO[C@H]1C[C@@H]2CC[C@@H](C)[C@@](O)(O2)C(=O)C(=O)N2CCCC[C@H]2C(=O)O[C@H]([C@H](C)C[C@@H]2CC[C@@H](O)[C@H](OC)C2)CC(=O)[C@H](C)/C=C(\C)[C@@H](O)[C@@H](OC)C(=O)[C@H](C)C[C@H](C)/C=C/C=C/C=C/1C
Resp: 0.947

Req: Can you share its cell count? I mean this molecule: Cn1c(CCCC(=O)O)nc2cc(N(CCCl)CCCl)ccc21
Resp: 1.03

Req: Can you share its cell count? I mean this molecule: CCCC[C@@H](C=O)NC(=O)[C@H](CC(C)C)NC(=O)[C@H](CC(C)C)NC(C)=O
Resp: 1.07
